Below, each entry is listed with its recorded GI50.
Test system: KM12
Assay Explanation: NCI tumour cell line growth inhibition, 48 h
Activity calls are given as the source filed them. No stated cut-off is given here; in the data, active = GI50 up to about 1.1 µM and inactive = higher.
Measured Attribute: GI50

INSERT INTO assay_data (molecule, observed_value) VALUES
  ('Cc1ccc(S(=O)(=O)OCCC2CN(C(=O)OCc3ccccc3)C(C)(C)O2)cc1 (configuration not stated)', '2.75 µM (inactive)'),
  ('N#CC1CNC(N)NC1N (configuration not stated)', '> 100 µM (inactive)'),
  ('CO[C@]12C#CC=CC#C[C@@H](O)[C@]3(CCC1)O[C@@]23c1cccc(O)c1', '> 100 µM (inactive)'),
  ('O=c1[nH]c(=O)n(COCc2ccccc2)c2ccccc12', '59.8 µM (inactive)'),
  ('O=C(C/C(=N/O)C(F)(F)F)c1cccs1', '> 100 µM (inactive)'),
  ('CCn1sc2ccccc2c1=O', '6.89 µM (inactive)'),
  ('COCC1OC(Sc2ccccc2)C(O)C(OC)C1OC (configuration not stated)', '> 100 µM (inactive)'),
  ('O=C1/C(=C/c2ccc(O)c(O)c2)CC/C1=C\c1ccc(O)c(O)c1', '9.79 µM (inactive)'),
  ('O=[N+]([O-])c1ccc2c(c1)S(=O)(=O)N1Cc3ccccc3CCN21', '> 100 µM (inactive)'),
  ('CCNC(=S)N/N=C(\C)c1cccc(C)n1', '20.3 µM (inactive)'),
  ('OC(CC1CCCCN1)c1ccc2c(c1)oc1ccccc12 (configuration not stated)', '> 100 µM (inactive)'),
  ('N#Cc1c(-c2ccco2)cc(-c2ccccc2)nc1O', '> 100 µM (inactive)');

----------
Test system: EKVX
Assay Explanation: NCI tumour cell line growth inhibition, 48 h
Calls of active or inactive are those of the source. No stated cut-off is given here; in the data, active = GI50 up to about 1.1 µM and inactive = higher.
Classes used: class 1 (active), class 0 (inactive)

INSERT INTO measurements (compound, system_name, discrete_label) VALUES
  ('Cc1ccccc1NC(=O)/C(C#N)=N\Nc1[nH]cnc1C(N)=O', 'EKVX', 'class 0'),
  ('CN(C(=O)C12C3(C(=O)O)C4C5(C(=O)O)C3C1(C(=O)O)C5C42C(=O)O)C(C)(C)C (stereo unspecified)', 'EKVX', 'class 0'),
  ('Cc1cc2c(SCc3ccccc3Cl)nc(N)nc2nc1C', 'EKVX', 'class 0'),
  ('OCCCCn1cc(Cn2ncc3c(SCc4ccccc4)ncnc32)nn1', 'EKVX', 'class 0'),
  ('CC(=O)NC1C(Sc2ncn(C3OC(CO)C(O)C(O)C3NC(C)=O)n2)OC(CO)C(O)C1O (stereo unspecified)', 'EKVX', 'class 0'),
  ('O=C(c1ccc(Cl)c(Cl)c1)N(Cc1cccnc1)C(=S)N(Cc1cccnc1)C(=O)c1ccc(Cl)c(Cl)c1', 'EKVX', 'class 0'),
  ('COc1cc(-c2oc(/C=N/c3ccccc3)c([N+](=O)[O-])c2-c2ccc(O)c(OC)c2)ccc1O', 'EKVX', 'class 0'),
  ('CCC1(c2ccc(OC)c(OC)c2)CCN(S(=O)(=O)c2ccc(C)cc2)C1 (stereo unspecified)', 'EKVX', 'class 0'),
  ('CNC(=O)CN(CC(=O)NC)C(=O)NC', 'EKVX', 'class 0'),
  ('CC(=O)O[C@@H]1C(=O)N(c2ccccc2)[C@@H]1c1cc2ccccc2c2ccccc12', 'EKVX', 'class 0'),
  ('CC(C)(C)C1CCC2(CC1)CCN(CCCN1CCOCC1)CC2', 'EKVX', 'class 0'),
  ('CC(=O)OC[C@H]1O[C@@H](O[C@H]2[C@H](OC(C)=O)C=CO[C@@H]2COC(C)=O)C(OC(C)=O)[C@H]2OC(C)(C)O[C@H]21 (stereo partly specified)', 'EKVX', 'class 0'),
  ('Cc1cc(C)c(C2CC(O)C(CO)O2)cc1C (stereo unspecified)', 'EKVX', 'class 0'),
  ('CC(=O)CCCCO', 'EKVX', 'class 0'),
  ('COc1ncc(C#CC(=O)c2ccccc2)c(OC)n1', 'EKVX', 'class 0'),
  ('CC1=C[C@H]2c3c([nH]c4ccccc34)C(c3c[nH]c4ccccc34)[C@H]2CC1 (stereo partly specified)', 'EKVX', 'class 0'),
  ('COc1ccc2c(c1)[n+]([O-])c(-c1nc3ccccc3s1)c(N)[n+]2[O-]', 'EKVX', 'class 0'),
  ('O=c1[nH]nc(-c2ccc3ccccc3c2)[nH]1', 'EKVX', 'class 1'),
  ('c1ccc(-c2nc3ccccc3n3c(CN4CCCCC4)nnc23)cc1', 'EKVX', 'class 0'),
  ('N#CC1(C#N)C2(c3ccccc3)OC(c3ccccc3)(c3cc4ccccc4cc32)C1(C#N)C#N', 'EKVX', 'class 0'),
  ('COc1cc(Cl)c2c3c(c(C(C)=O)oc13)CCC2', 'EKVX', 'class 0');

----------
Let's look at some compounds and their measured GI50.
Test system: KM12
Assay Explanation: NCI tumour cell line growth inhibition, 48 h
Active and inactive are the calls of the source. No stated cut-off is given here; in the data, active = GI50 up to about 1.1 µM and inactive = higher. Where a SMILES comes first, the peptide text is derived from it. Bridges are numbered along the chain shown (N, C = ends). The star is where a group is joined. Cbz = O=C(OCc1ccccc1)*
Measured Attribute: GI50

INSERT INTO assay_data (compound, observed_value) VALUES
  ('Cc1cc(C)c(C2CC(O)C(CO)O2)cc1C (configuration not stated)', '> 100 µM (inactive)'),
  ('CCCN(CCC)C(=O)c1c(N2CCN(C)CC2)c2cccnc2n2c(C)cnc12', '> 100 µM (inactive)'),
  ('N=C(N)N/N=C/c1c[nH]c2ccccc12', '> 100 µM (inactive)'),
  ('Cc1ccc(C)c(COCCOCn2cc(Br)c(N)nc2=O)c1', '> 100 µM (inactive)'),
  ('CC1CCP(=O)(c2ccccc2)c2ccccc21 (configuration not stated)', '> 100 µM (inactive)'),
  ('CCOP(=O)(O)C1C(CO)OC(n2ccc(=O)[nH]c2=O)C1O (configuration not stated)', '> 100 µM (inactive)'),
  ('COC1(OC)CC2C=C(S(=O)(=O)c3ccccc3)C1N(Cc1ccccc1)C2=O (configuration not stated)', '24.7 µM (inactive)'),
  ('C[C@]12CC[C@H](OC(=O)Nc3ccccc3)CC1=CC[C@@H]1C2CC[C@]2(C)/C(=N/OC(=O)Nc3ccccc3)CCC12 (some centres not stated)', '8.15 µM (inactive)'),
  ('Cc1ccc2c(c1)nc(N)n[n+]2[O-]', '> 100 µM (inactive)'),
  ('COC(=O)C1CCCCNC(=O)CCC(NC(=O)OCc2ccccc2)C(=O)N1 (stereo not drawn) (Cbz-Glu-Lys-OMe; lactam 1-2; configuration not given here)', '> 100 µM (inactive)'),
  ('CCOC(=O)/C(=C\c1cccc(C)c1)C(C)=O', '15.2 µM (inactive)'),
  ('COc1cccc2c1C(=O)C(=O)c1c-2oc(=O)c2cc(C)cc(OC)c12', '21.1 µM (inactive)'),
  ('O=c1[nH]nc(-c2ccc3ccccc3c2)[nH]1', '36.2 µM (inactive)'),
  ('CC(=O)NC1C(Sc2ncn(C3OC(CO)C(O)C(O)C3NC(C)=O)n2)OC(CO)C(O)C1O (configuration not stated)', '> 100 µM (inactive)'),
  ('CNCCCNC(=S)Cn1cc(C)c(=O)[nH]c1=O', '> 48.1 µM (inactive)'),
  ('OC(c1cc2ccccc2[nH]1)C1(c2cccnc2)SCCCS1 (configuration not stated)', '26.7 µM (inactive)'),
  ('COc1ccc(/N=C2/C(=N/c3ccc(OC)cc3)N(c3ccccc3)C(=S)N2N=C=C2Sc3ccccc3N2C)cc1', '> 100 µM (inactive)');

----------
System: MOLT-4
Assay Explanation: NCI tumour cell line growth inhibition, 48 h
The source made the active and inactive calls. Cut-off read from the data, not from the text of the source: active = GI50 up to about 1.1 µM and inactive = higher.
Measured Attribute: GI50

INSERT INTO measurements (compound, observed_value) VALUES
  ('CCOP(=O)(OCC)C(Nc1cccc([N+](=O)[O-])c1)c1ccccc1 (stereo not drawn)', '39.4 µM (inactive)'),
  ('Sc1nnc(CCCCCCCCc2nnc(S)o2)o1', '> 100 µM (inactive)'),
  ('CC(O)C1(CNc2cc(Cl)nc(N)n2)CC(CCc2ccccc2)C1 (stereo not drawn)', '11.6 µM (inactive)');

----------
Tested on: DU-145
Assay Explanation: NCI tumour cell line growth inhibition, 48 h
Activity calls are given as the source filed them. Cut-off read from the data, not from the text of the source: active = GI50 up to about 1.1 µM and inactive = higher.
Classes used: active, inactive

INSERT INTO assay_data (compound, system_name, discrete_label) VALUES
  ('OC(c1cc2ccccc2[nH]1)C1(c2cccnc2)SCCCS1 (stereo unspecified)', 'DU-145', 'inactive'),
  ('Nc1nc(Cl)cc(NCC2(CO)CCC(O)C2)n1 (stereo unspecified)', 'DU-145', 'inactive'),
  ('Cc1cn2c(C)csc2c1P(=O)(OC(C)C)OC(C)C', 'DU-145', 'inactive'),
  ('O=C1N/C(=N/N=C/c2ccccc2)N/C1=C\c1c[nH]c2ccccc12', 'DU-145', 'inactive'),
  ('COc1cccc2c1C(=O)C(=O)c1c-2oc(=O)c2cc(C)cc(OC)c12', 'DU-145', 'inactive'),
  ('COc1ccc(/C=C/C(=O)Oc2cc(O)cc(O)c2)cc1', 'DU-145', 'inactive'),
  ('c1ccc(-c2nnc(SCc3c[nH]c4ccccc34)n2-c2ccccc2)cc1', 'DU-145', 'inactive'),
  ('COc1ccc(-c2csc3c2-n2cccc2C3=O)cc1', 'DU-145', 'active'),
  ('Sc1nnc(CCCCCCCCc2nnc(S)o2)o1', 'DU-145', 'inactive'),
  ('N#Cc1c(=O)c2cc([N+](=O)[O-])ccc2n2c1[nH]c1ccccc12', 'DU-145', 'inactive'),
  ('O=C(O)C1C(=O)Oc2c(cccc2[N+](=O)[O-])C1O (stereo unspecified)', 'DU-145', 'inactive');
